The measured values listed here are drawn from patent US7041687B2.

Hi! I'm sharing some pKi results obtained with PDK-1 (Homo sapiens, UniProt O15530).
Sequence (O15530 whole entry): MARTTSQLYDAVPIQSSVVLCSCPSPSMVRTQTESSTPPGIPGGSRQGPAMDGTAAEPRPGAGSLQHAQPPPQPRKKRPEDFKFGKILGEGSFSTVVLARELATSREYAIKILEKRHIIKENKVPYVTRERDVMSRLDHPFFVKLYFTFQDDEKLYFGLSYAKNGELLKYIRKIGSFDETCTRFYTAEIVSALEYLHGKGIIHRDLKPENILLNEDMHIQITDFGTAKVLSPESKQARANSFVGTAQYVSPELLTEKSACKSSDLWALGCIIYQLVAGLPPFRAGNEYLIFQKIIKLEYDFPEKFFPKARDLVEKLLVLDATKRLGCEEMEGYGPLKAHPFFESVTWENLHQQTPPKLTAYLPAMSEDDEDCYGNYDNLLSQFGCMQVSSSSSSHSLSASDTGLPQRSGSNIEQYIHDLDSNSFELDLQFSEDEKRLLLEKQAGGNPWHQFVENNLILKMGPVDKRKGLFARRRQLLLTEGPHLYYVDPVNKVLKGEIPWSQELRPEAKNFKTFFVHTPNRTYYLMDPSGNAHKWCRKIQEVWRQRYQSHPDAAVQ
pKi: −log10 of the molar value.

Some entries whose results are on file:
>>> assay_value("CC(=O)c1ccc(-c2n[nH]c3ccc(NC(=O)C(CCN)c4ccccc4)cc23)cc1 (centres unmarked)")
"> 6.00"
>>> assay_value("NCC[C@H](C(=O)Nc1ccc2[nH]nc(NC(=O)c3cccs3)c2c1)c1c(F)ccc(Cl)c1F")
"> 6.00"
>>> assay_value("CC(=O)OC(C(=O)Nc1ccc2[nH]ncc2c1)c1ccccc1 (centres unmarked)")
"< 5.52"
>>> assay_value("NCCC(C(=O)Nc1ccc2[nH]ncc2c1)c1cccc(OCc2ccccc2)c1 (centres unmarked)")
"> 6.00"
>>> assay_value("Cc1cccn(C(CCN)C(=O)Nc2ccc3[nH]nc(C)c3c2)c1=O (centres unmarked)")
"5.52 to 6.00"

### Prompt # input compound: Cc1n[nH]c2ccc(NC(=O)C(CCN)c3cccc(Cl)n3)cc12 (centres unmarked) ; wanted: its pKi
### Response 5.52 to 6.00

### Prompt # input compound: NCCC(C(=O)Nc1ccc2[nH]nc(NC(=O)c3cccnc3)c2c1)c1ccc(Cl)c(Cl)c1 (centres unmarked) ; wanted: its pKi
### Response > 6.00

### Prompt # input compound: N#Cc1cccc(Nc2n[nH]c3ccc(NC(=O)C(CN)c4ccc(Cl)c(Cl)c4)cc23)c1 (centres unmarked) ; wanted: its pKi
### Response < 5.52
